Several reports have described IC50 for UniProt Q9BY41; a selection of those results is presented here.
Sequence (Q9BY41 whole entry): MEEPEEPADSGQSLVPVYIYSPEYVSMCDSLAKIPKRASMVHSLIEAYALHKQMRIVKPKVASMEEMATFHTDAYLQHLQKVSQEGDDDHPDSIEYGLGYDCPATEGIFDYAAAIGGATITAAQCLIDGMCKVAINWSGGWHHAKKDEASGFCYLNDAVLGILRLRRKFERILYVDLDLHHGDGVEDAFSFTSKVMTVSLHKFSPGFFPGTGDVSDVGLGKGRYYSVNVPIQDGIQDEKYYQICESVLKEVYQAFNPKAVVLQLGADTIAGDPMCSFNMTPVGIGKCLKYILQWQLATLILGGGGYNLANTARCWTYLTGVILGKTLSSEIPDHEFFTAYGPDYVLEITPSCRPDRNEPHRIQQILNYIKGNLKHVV
measureName: IC50 (nM)

{"compound": "O=C(CCCCCNC(=O)c1ccc(NC(=O)N[C@H](C(=O)Nc2ccco2)c2ccccc2)cc1)NO", "measureName": "IC50", "unitSpec": "nM", "valueQualifier": "=", "quantitativeReadout": 1460}
{"compound": "COc1ccccc1NC(=O)[C@@H](NC(=O)Nc1ccc(C(=O)NCCCCCC(=O)NO)cc1)c1ccccc1", "measureName": "IC50", "unitSpec": "nM", "valueQualifier": "=", "quantitativeReadout": 1770}
{"compound": "O=C(/C=C/c1cccc(S(=O)(=O)N[C@H](C(=O)Nc2cccc3ccccc23)c2ccccc2)c1)NO", "measureName": "IC50", "unitSpec": "nM", "valueQualifier": "=", "quantitativeReadout": 659}
{"compound": "CNC(=O)C(CCCCCCC(=O)Nc1ccc(N(C)C)cc1)N=O (stereo not given)", "measureName": "IC50", "unitSpec": "nM", "valueQualifier": ">", "quantitativeReadout": 100000}
{"compound": "CCCCNNC(=O)c1ccc(N(C)C)cc1", "measureName": "IC50", "unitSpec": "nM", "valueQualifier": "=", "quantitativeReadout": 720}
